Provenance of the data: patent US6858642B1

# System: adult castrated male rats
# assay details: Androgen-dependent regrowth of ventral prostate and seminal vesicles in castrated rats, compounds given orally in drinking water
# Format: in vivo, rat
# stated conditions: Table 2; testosterone + compound 10 mg/l drinking water, 4 days
Can you tell me Prostate (mg/g body weight) for the items I'm about to list?
Kindly provide the numeric value in mg/g body weight only, without the unit symbol.

Challenge: Quick check: Prostate (mg/g body weight) on adult castrated male rats, item COc1ccc2[nH]cc(CCNC(=O)C3CCCO3)c2c1 (centres unmarked) ?
Response given: 0.50

Challenge: Now this one: COc1ccc2[nH]cc(CCNC(C)=O)c2c1 [Melatonin, reference compound]
Response given: 0.55

Challenge: Now this one: COc1ccc2[nH]cc(CCNC(=O)c3ccco3)c2c1
Response given: 0.49

Challenge: Now this one: COc1ccc2[nH]cc(CCNCC3CCCO3)c2c1 (centres unmarked)
Response given: 0.49

Challenge: Now this one: COc1ccc2[nH]cc(CCNC(=O)c3ccccc3OC(C)=O)c2c1
Response given: 0.57
